species: Rattus norvegicus; test: Compound was tested for vasorelaxant activity on the basis of ability to relax endothelium-denuded rat aortic strips toned with 20 mM KCl; assay type: functional, Aorta; conditions: Rattus norvegicus, Aorta
pIC50: −log10 of the molar value.
Measure Name: pIC50

Consider the following illustrative entries.
Asked: Which value of pIC50 has been reported for CC(N/C(=N\C#N)Nc1ccncc1)C(C)(C)C (stereo not given) [PINACIDIL ANHYDROUS] in the records?
Given back: 6.42

Asked: Which value of pIC50 has been reported for C[C@]12CC[C@H](C[C@@H]1/N=C(\NC#N)Nc1ccc(N)nc1)C2 in the records?
Given back: 6.93

A: N#CN/C(=N\[C@@H]1C[C@H]2CC[C@@H]1C2)Nc1ccc(N)nc1 (stereo in doubt; (-)-9)
B: CC1(C)Oc2ccc(C#N)cc2[C@@H](N2CCCC2=O)[C@@H]1O
C: Cl.N#CN/C(=N\C1CC2CCC1C2)Nc1ccc(N)nc1 (stereo not given)
Asked: Arrange the 3 entries by pIC50 so the values rise. List the labels in the requested order.
Given back: C, A, B
(C: 6.23, A: 6.56, B: 6.96)

----------
species: Rattus norvegicus; assay: Compound was tested for oral diuretic effect on spontaneously hypertensive rats by measuring the excretion of sodium at vehicle concentration; assay type: ADME, organism-based, Urine; settings: in vivo
Measure Name: Na+ excretion (m equiv 5hr-1 kg-1)

Asked: Which value of Na+ excretion has been reported for CC(N/C(=N\C#N)Nc1ccncc1)C(C)(C)C (centres undefined) [PINACIDIL ANHYDROUS] in the records?
Given back: 1.357

Asked: Which value of Na+ excretion has been reported for C[C@]12CC[C@H](C[C@@H]1/N=C(\NC#N)Nc1ccc(N)nc1)C2.Cl (racemic) in the records?
Given back: 1.072

Asked: Which value of Na+ excretion has been reported for Cl.N#CN/C(=N\[C@H]1C[C@H]2CC[C@@H]1C2)Nc1ccc(N)nc1 (racemic) in the records?
Given back: 1.072

Asked: Which value of Na+ excretion has been reported for Cl.N#CN/C(=N\[C@@H]1CC2CCC1C2)Nc1ccc(N)nc1 (mixture of isomers) in the records?
Given back: 1.357

----------
assay: Ratio between Na+ and K+ excretion values at a dose of 5 mg/kg; format: ADME, organism-based; parameters: dose 5 mg/kg; conditions: in vivo
Measure Name: Ratio

Asked: Which value of Ratio has been reported for Cl.N#CN/C(=N\[C@@H]1CC2CCC1C2)Nc1ccc(N)nc1 (mixture of isomers) in the records?
Given back: 0.5

a: C[C@]12CC[C@H](C[C@@H]1/N=C(\NC#N)Nc1ccc(N)nc1)C2.Cl (racemic)
b: Cl.N#CN/C(=N\[C@H]1C[C@H]2CC[C@@H]1C2)Nc1ccc(N)nc1 (racemic)
c: CC(N/C(=N\C#N)Nc1ccncc1)C(C)(C)C (centres undefined) [PINACIDIL ANHYDROUS]
Asked: Arrange the 3 entries by Ratio so the values rise. List the labels in the requested order.
Given back: c, a, b

----------
test system: Rattus norvegicus; test: Compound was tested for oral diuretic effect on spontaneously hypertensive rats by measuring the urinary volume at 1 mg/kg concentration; type: functional, Urine
Measure Name: Urinary volume (ml kg-1 5hr-1)
Respond numerically; units are ml kg-1 5hr-1 and should not be typed.

Asked: Any idea what Urinary volume came out for Cl.N#CN/C(=N\[C@@H]1CC2CCC1C2)Nc1ccc(N)nc1 (mixture of isomers) on Rattus norvegicus?
Given back: 8.77

Asked: Any idea what Urinary volume came out for CC(N/C(=N\C#N)Nc1ccncc1)C(C)(C)C (centres undefined) [PINACIDIL ANHYDROUS] on Rattus norvegicus?
Given back: 7.62

Asked: Any idea what Urinary volume came out for C[C@]12CC[C@H](C[C@@H]1/N=C(\NC#N)Nc1ccc(N)nc1)C2.Cl (racemic) on Rattus norvegicus?
Given back: 6.92

Read the next record carefully.
Asked: Any idea what Urinary volume came out for Cl.N#CN/C(=N\[C@H]1C[C@H]2CC[C@@H]1C2)Nc1ccc(N)nc1 (racemic) on Rattus norvegicus?
Given back: 5.53

Origin of measurements: ChEMBL document CHEMBL1127557
